test system: RSK4(Kin.Dom.1-N-terminal); construct: gene RPS6KA6; conditions: Compound Concentration (nM):1000;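 also: KINOMEscan scanMAX binding as percent activity remaining versus control; lower means stronger binding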
Assignment: determine reported Percent Control for the given compounds.

Some solved cases for reference:
• CC1=C(C(=O)Nc2ccc3[nH]ncc3c2)C(c2ccc3ccccc3c2)CC(=O)N1 (centres unmarked) [GSK270822A] = 67%
• COc1cc2ncn(-c3cc(O[C@H](C)c4ccccc4Cl)c(C(N)=O)s3)c2cc1OC [GSK237701A] = 45%
• CC(C)COC(=O)c1ccc2c(c1)/C(=C/Nc1ccc(S(N)(=O)=O)cc1)C(=O)N2 [GW416981X] = 43%
• CN1CCN(C(=O)c2ccc(NC(=O)Nc3ccc(N(C)c4ccnc(Nc5ccc(CS(C)(=O)=O)cc5)n4)cc3)cc2)CC1.Cl [GW830263A] = 74%

Provide the reported Percent Control of each entry below, same order.
1. Cl.O=S1CCN(Cc2ccc(-c3ccc4ncnc(Nc5ccc(OCc6ccccc6)c(F)c5)c4c3)o2)CC1 [GW576924A]
2. Nc1ncnc2occ(-c3ccc(NC(=O)Nc4cc(C(F)(F)F)ccc4F)cc3)c12 [GW770249X]
3. O=C(Nc1n[nH]c2nc(-c3ccc(O)cc3)c(Br)cc12)C1CC1
4. O=C1Nc2ccc(C(=O)c3ccco3)cc2C1=Cc1cc(Cl)c(O)c(Cl)c1 [GW406108X]

1: 97%; 2: 87%; 3: 19%; 4: 53%

* * *

test system: MAST1; conditions: Compound Concentration (nM):1000
MEASURE: Percent Control (%)
One number for each entry, in %.

- COc1cc2ncnc(Nc3ccc4c(cnn4Cc4ccccc4)c3)c2cc1OC.Cl [GW282449A]: 100
- COc1ccccc1-c1cc(/C=C2\C(=O)Nc3ncc(Br)cc32)cc(Br)c1O [GW442130X]: 85

Provide the reported Percent Control of each entry below, same order.
1. CN1CCN(C(=O)c2ccc(NC(=O)Nc3ccc(N(C)c4ccnc(Nc5ccc(CS(C)(=O)=O)cc5)n4)cc3)cc2)CC1.Cl [GW830263A]
2. COc1cc(C)c(N(C)C(=O)CN(C)C)cc1Nc1nc(Nc2cccc(F)c2C(N)=O)c2cc[nH]c2n1
3. Cl.c1ccc(Cc2nc3ccc(Nc4ncnc5ccccc45)cc3[nH]2)cc1 [GR269666A]
4. Cl.O=C(Nc1ccc(Oc2ccc3[nH]c(NC(=O)c4ccccc4)nc3c2)cc1)Nc1cc(C(F)(F)F)ccc1F [GW709042A]
5. CN(C)c1cc2c(Nc3ccc4c(cnn4Cc4ccccc4)c3)ncnc2cn1 [GW282974X]
6. COC(=O)Nc1nc2ccc(Oc3ccc(NC(=O)Nc4cc(C(F)(F)F)ccc4F)cc3)cc2s1.Cl [GW693917A]
7. COc1ccc(COc2ccc(Cc3cnc(N)nc3N)cc2OC)cc1 [GW632580X]
8. NS(=O)(=O)c1ccc(N/N=C2\C(=O)Nc3ccc(C(=O)NCCc4c[nH]cn4)cc32)cc1 [GW300660X]

61
44
100
99
77
41
93
100

* * *

Assignment: determine reported Percent Control for the given molecules.
tested on: CAMKK1; details: Compound Concentration (nM):1000
One number for each entry, in %.

Some solved cases for reference:
- Nc1ncnc2occ(-c3ccc(NC(=O)Nc4cc(C(F)(F)F)ccc4F)cc3)c12 [GW770249X]: 97
- COc1ccc2cc(-c3c(-c4ccncc4)nc(-c4ccc(S(C)(=O)=O)cc4C)n3C)ccc2c1: 77
- COc1cc(C)c(N(C)C(=O)CN(C)C)cc1Nc1nc(Nc2cccc(F)c2C(N)=O)c2cc[nH]c2n1: 97
- O=C(Nc1n[nH]c2nc(-c3ccc(O)cc3)c(Br)cc12)C1CC1: 100
- COc1cc2ncn(-c3cc(O[C@H](C)c4ccccc4Cl)c(C(N)=O)s3)c2cc1OC [GSK237701A]: 92

Provide the reported Percent Control of each entry below, same order.
1. COc1ccccc1-c1cc(/C=C2\C(=O)Nc3ncc(Br)cc32)cc(Br)c1O [GW442130X]
2. CN(C)CCNC(=O)Nc1ccc(N(C)c2ccnc(Nc3ccc(CS(C)(=O)=O)cc3)n2)cc1.Cl [GW830900A]

1. 100
2. 99

Look up Percent Control for this molecule: COc1cc2ncnc(Nc3ccc4c(cnn4Cc4ccccc4)c3)c2cc1OC.Cl [GW282449A]
100

* * *

Assignment: determine reported Percent Control for the given compounds.
system: PRKCQ; details: Compound Concentration (nM):1000

Some solved cases for reference:
- COc1ccc2c(-c3ccnc(Nc4cccc(OC(F)(F)F)c4)n3)cnn2n1 [GW810372X]: 100%
- COc1cc(N2CCN(C(C)C)CC2)ccc1Nc1nc(Nc2ccc(F)cc2C(=O)NC[C@@H](O)CO)c2cc[nH]c2n1 [GSK1392956A]: 95%
- CC1=C(C(=O)Nc2ccc3[nH]ncc3c2)C(c2ccc(Cl)c(Cl)c2)CC(=O)N1 (stereo not shown) [GSK299115A]: 95%
- Cl.O=C(Nc1ccc(Oc2ccc3[nH]c(NC(=O)c4ccco4)nc3c2)cc1)Nc1cc(C(F)(F)F)ccc1F [GW683134A]: 100%

Provide the reported Percent Control of each entry below, same order.
1. NS(=O)(=O)c1ccc(N/N=C2\C(=O)Nc3ccc(Cl)cc32)cc1 [GW280670X]
2. COC(=O)Nc1nc2ccc(Oc3ccc(NC(=O)Nc4cc(C(F)(F)F)ccc4F)cc3)cc2s1.Cl [GW693917A]
3. CCc1ccc(Oc2nccc(-c3c(-c4ccc(F)cc4)ncn3C3CCNCC3)n2)cc1 [SB-242719]
4. NS(=O)(=O)c1ccc(Nc2ncc(-c3ccccc3)o2)cc1 [GW572399X]

["100%", "62%", "84%", "100%"]

Provide the reported Percent Control of each entry below, same order.
1. C[C@@H](Oc1cc(-n2cnc3ccc(OC4CCN(C)CC4)cc32)sc1C(N)=O)c1ccccc1Cl [GSK579289A]
2. COc1ccccc1-c1cc(/C=C2\C(=O)Nc3ncc(Br)cc32)cc(Br)c1O [GW442130X]
3. COc1ccc2cc(-c3c(-c4ccncc4)nc(-c4ccc(S(C)(=O)=O)cc4C)n3C)ccc2c1 [SB-633825]

1. 58%
2. 100%
3. 59%

Provide the reported Percent Control of each entry below, same order.
1. COc1cccc(-c2c[nH]c3c(N/N=C/c4ccncc4)ncnc23)c1 [GW814408X]
2. Cl.O=C(Nc1ccc(Oc2ccc3[nH]c(NC(=O)c4ccccc4)nc3c2)cc1)Nc1cc(C(F)(F)F)ccc1F [GW709042A]

["100%", "100%"]

* * *

test system: MYLK; details: Compound Concentration (nM):1000
MEASURE: Percent Control (%)
Answers are plain numbers, in %.

Some solved cases for reference:
* COc1cc2ncnc(Nc3ccc4c(cnn4Cc4ccccc4)c3)c2cc1OC.Cl [GW282449A] | 100
* COc1ccc2c(-c3ccnc(Nc4cccc(OC(F)(F)F)c4)n3)cnn2n1 [GW810372X] | 100
* Cl.c1ccc(Cc2nc3ccc(Nc4ncnc5ccccc45)cc3[nH]2)cc1 [GR269666A] | 100
* COC(=O)Nc1nc2ccc(Oc3ccc(NC(=O)Nc4cc(C(F)(F)F)ccc4F)cc3)cc2s1.Cl [GW693917A] | 100
* CCS(=O)(=O)c1ccc(OC)c(Nc2ncc(-c3cccc(F)c3)o2)c1 [GW621970X] | 100
* Nc1ncnc2occ(-c3ccc(NC(=O)Nc4cc(C(F)(F)F)ccc4F)cc3)c12 [GW770249X] | 100
* Cc1cc(O)cc(C)c1/C=C/c1cncc(C(N)=O)c1 [GW435821X] | 97
* NS(=O)(=O)c1ccc(N/N=C2\C(=O)Nc3ccc(C(=O)NCCc4c[nH]cn4)cc32)cc1 [GW300660X] | 79

// switching to the query compound
Look up Percent Control for this compound: C[C@@H](Oc1cc(-n2cnc3ccc(OC4CCN(C)CC4)cc32)sc1C(N)=O)c1ccccc1Cl [GSK579289A]
81

* * *

system: VEGFR2; construct: gene KDR; settings: Compound Concentration (nM):1000
Assignment: determine reported Percent Control for the given compounds.
One number for each entry, in %.

* Cl.O=S1CCN(Cc2ccc(-c3ccc4ncnc(Nc5ccc(OCc6ccccc6)c(F)c5)c4c3)o2)CC1 [GW576924A] | 97

Provide the reported Percent Control of each entry below, same order.
1. COc1ccc2cc(-c3c(-c4ccncc4)nc(-c4ccc(S(C)(=O)=O)cc4C)n3C)ccc2c1
2. Nc1ncnc2occ(-c3ccc(NC(=O)Nc4cc(C(F)(F)F)ccc4F)cc3)c12 [GW770249X]

49
0.9

Look up Percent Control for this compound: O=C(Nc1n[nH]c2nc(-c3ccc(O)cc3)c(Br)cc12)C1CC1
57

* * *

tested on: PLK2; settings: Compound Concentration (nM):1000
Assignment: determine reported Percent Control for the given molecules.
Include the unit after the number when you answer.

- COc1cc2ncnc(Nc3ccc4c(cnn4Cc4ccccc4)c3)c2cc1OC.Cl [GW282449A]: 100%
- COc1ccc(COc2ccc(Cc3cnc(N)nc3N)cc2OC)cc1 [GW632580X]: 100%
- COc1cccc(-c2c[nH]c3c(N/N=C/c4ccncc4)ncnc23)c1 [GW814408X]: 100%
- NS(=O)(=O)c1ccc(N/N=C2\C(=O)Nc3ccc(C(=O)NCCc4c[nH]cn4)cc32)cc1 [GW300660X]: 75%

// switching to the query molecule
Look up Percent Control for this molecule: CN(C)c1cc2c(Nc3ccc4c(cnn4Cc4ccccc4)c3)ncnc2cn1 [GW282974X]
100%
